system: L1210 leukemia ip in BDF1 mice, survival T/C; assay: NCI In Vivo Anticancer Drug Screen. Data for tumor model L1210 Leukemia (intraperitoneal) in B6D2F1 (BDF1) mice; settings: endpoint: mean survival time; dose: 400.0 mg/kg/injection; schedule: Q04DX003 (ip); vehicle: saline; higher = longer survival
Inconclusive results and toxic doses are left out.
test_readout: T/C

# count of solved cases: 3
ClCC1CC2c3ccccc3C1c1ccccc12 (centres undefined) = 90 % of control
CC(C)(C)OOC(=O)c1ccccc1O = 110 % of control
O=C(O)C1=NN(c2cc(Cl)c(S(=O)(=O)O)cc2Cl)C(=O)C1 = 106 % of control

Query: Given the molecule "O=C(O)CCCN1C/C(=C\c2ccc(Cl)cc2)C(=O)C1=O" , write its reported T/C.
Reply: 96 % of control

Query: For the molecule "Cc1ccc(C)c(NC(=O)Oc2ccc(-c3ccccc3)cc2)c1" , give its reported T/C.
Reply: 101 % of control

Query: Specify reported T/C for the molecule shown: "O=c1c2cc([N+](=O)[O-])ccc2[nH]c2c1ccc1ccccc12"
Reply: 90 % of control

Query: Tell me T/C reported for "O=C(OCCNC(=O)N1CCOCC1)OCCNC(=O)N1CCOCC1"
Reply: 106 % of control

Query: Give recorded T/C. "OC(c1ccccc1)(c1ccccc1)c1ccccc1Cl"
Reply: 91 % of control

Query: State its T/C: "O=C(CS)NNC(=O)CS"
Reply: 86 % of control

Query: Specify measured T/C for "Nc1nc2c(c(-c3ccccc3)n1)CN(c1ccc(Br)cc1)C2=O" .
Reply: 90 % of control

Query: For O=C(O)C1C(C2c3ccc(O)cc3Oc3cc(O)ccc32)C2(Cl)C(Cl)=C(Cl)C1(Cl)C2(Cl)Cl (centres undefined) , write its T/C.
Reply: 94 % of control

Query: Could you please provide reported T/C for CC1CCC(C(C)C)=C(C2CCCCC2)C1 (centres undefined) ? Thanks!
Reply: 87 % of control

====

tested on: L1210 leukemia ip in BDF1 mice, survival T/C; assay: NCI In Vivo Anticancer Drug Screen. Data for tumor model L1210 Leukemia (intraperitoneal) in B6D2F1 (BDF1) mice; conditions: endpoint: mean survival time; dose: 12.5 mg/kg/injection; schedule: Q01DX009 (ip); vehicle: Klucel (hydroxypropylcellulose) (HPC); higher = longer survival
Toxic doses and inconclusive results are not listed.
test_readout: T/C

C=C(Br)CNC(=O)C1CCCCC1 = 102 % of control

Query: Please supply the value of reported T/C for the item "COC(=O)C(=CC(Cl)(Cl)Cl)C(=O)OC"
Reply: 96 % of control

Query: Return T/C for the following compound: "Cc1ccc(NC(=O)Oc2cccnc2)cc1"
Reply: 107 % of control

Query: Quickly give me recorded T/C for "c1ccc2c(c1)ccc1[nH]c3ccc4ccccc4c3c12"
Reply: 109 % of control

Query: Retrieve T/C measured for C[N+](C)(Cc1ccccc1)C1c2ccccc2-c2ccc(Br)cc21 (stereo not drawn) and print it.
Reply: 97 % of control

Query: Tell me measured T/C for "COc1ccc(CN(CCN(C)C)c2ccccn2)cc1" please.
Reply: 97 % of control

Query: Provide T/C value for the following compound: "O=C(CCN1CC1)Nc1ccccc1"
Reply: 106 % of control

Query: Note down T/C recorded for "CN(C1CCCCC1)C1CCCCC1"
Reply: 91 % of control

====

test system: L1210 leukemia ip in BDF1 mice, survival T/C; assay: NCI In Vivo Anticancer Drug Screen. Data for tumor model L1210 Leukemia (intraperitoneal) in B6D2F1 (BDF1) mice; conditions: endpoint: mean survival time; dose: 50.0 mg/kg/injection; schedule: Q01DX009 (ip); vehicle: saline; higher = longer survival
Toxic doses and inconclusive results are not listed.
test_readout: T/C

Worked examples follow.
NC(N)=Nc1ccc(C(=O)Nc2ccc([N+](=O)[O-])cc2)cc1 = 101 % of control
Cc1cc(=O)[nH]c2c1CCC2 = 92 % of control
CC(C)(C)C1CC(C(F)(F)F)(C(F)(F)F)OS(=O)O1 (configuration not stated) = 100 % of control
O=[N+]([O-])c1ccc(CSC2=NCCN2)cc1 = 104 % of control
NC(=S)N/N=C\c1ncnc2ccccc12 = 117 % of control
c1ccc(C[N+](Cc2ccccc2)=C2CCCCC2)cc1 = 92 % of control

Query: Return T/C (reported value) for this compound: "CC[N+](C)(C)c1ncnc2nc[nH]c12"
Reply: 103 % of control

====

Measured T/C by item
system: L1210 leukemia ip in BDF1 mice, survival T/C; assay: NCI In Vivo Anticancer Drug Screen. Data for tumor model L1210 Leukemia (intraperitoneal) in B6D2F1 (BDF1) mice; settings: endpoint: mean survival time; dose: 100.0 mg/kg/injection; schedule: Q04DX003 (ip); vehicle: Klucel (hydroxypropylcellulose) (HPC); higher = longer survival
Toxic doses and inconclusive results are not listed.

Record excerpt, results attached:
COc1ccc(C(=O)/C=C/c2ccc(OC)c(OC)c2)cc1 = 95 % of control
CC(=O)NC(Cc1ccccc1)C(=O)O (configuration not stated) = 103 % of control
Brc1cnc(OCc2ccccc2)nc1OCc1ccccc1 = 96 % of control

Query: Name the value of T/C reported for "O=C(NCCBr)Nc1ccc2c(c1)OCO2" when tested on L1210 leukemia ip in BDF1 mice, survival T/C.
Reply: 111 % of control

Query: Give T/C; test system L1210 leukemia ip in BDF1 mice, survival T/C; molecule "Cc1c(Cl)cccc1NC(=O)c1ccccc1C(=O)O"
Reply: 96 % of control

Query: GET T/C where system = L1210 leukemia ip in BDF1 mice, survival T/C and item = COC(=O)c1c2c(nc3ccccc13)-c1ccccc1C(C)(C)C2Br (configuration not stated)
Reply: 95 % of control

Query: Answer briefly: T/C recorded on L1210 leukemia ip in BDF1 mice, survival T/C for "CN(C1CCCCC1)C1CCCCC1"
Reply: 97 % of control

Query: Report T/C on L1210 leukemia ip in BDF1 mice, survival T/C for this entry: "CCC(=O)OCc1ccc(Cl)cc1"
Reply: 101 % of control

Query: Under L1210 leukemia ip in BDF1 mice, survival T/C: report T/C of O=C(O)/C=C/C(=O)Nc1cc(Cl)cc2c1-c1c(Cl)cc(Cl)cc1C2O (configuration not stated) .
Reply: 98 % of control

Query: With L1210 leukemia ip in BDF1 mice, survival T/C as the test system, provide measured T/C for this molecule: "CN(C)N=Nc1ccc(C(=O)N/N=C/c2ccc(Cl)cc2)cc1"
Reply: 97 % of control

Query: Using L1210 leukemia ip in BDF1 mice, survival T/C as the test system, report measured T/C of "Clc1ccc(N2CCN(CCCN3CCN(c4cccc(Cl)c4)CC3)CC2)cc1" .
Reply: 88 % of control

Query: State, for L1210 leukemia ip in BDF1 mice, survival T/C, measured T/C of the molecule listed here: "CCCCCCC(=O)C(C)C"
Reply: 89 % of control

Query: Please report the measured T/C for "CN(C)C(=S)SCN1CCCCC1" tested on L1210 leukemia ip in BDF1 mice, survival T/C.
Reply: 96 % of control

Query: Answer with T/C of "Cc1nc(N)nc2c1CCC(=O)N2" measured for L1210 leukemia ip in BDF1 mice, survival T/C.
Reply: 100 % of control

Query: For L1210 leukemia ip in BDF1 mice, survival T/C, give the measured T/C of the entry "CCOC(=O)c1cnc(SC)nc1C(=O)OCC"
Reply: 94 % of control

====

System: L1210 leukemia ip in BDF1 mice, survival T/C
Test: NCI In Vivo Anticancer Drug Screen. Data for tumor model L1210 Leukemia (intraperitoneal) in B6D2F1 (BDF1) mice
Conditions: endpoint: mean survival time; dose: 75.0 mg/kg/injection; schedule: Q01DX001 (ip); vehicle: other; higher = longer survival
Protocol: The antitumor activity of compounds was measured in mice bearing transplantable tumors. Survival or tumor size were measured and the results are expressed as the measurement made in the treated group (T) divided by the measurement made in the vehicle treated control group (C). The tumor model used in this assay is L1210 Leukemia (intraperitoneal) in B6D2F1 (BDF1) mice
Inconclusive results and toxic doses are left out.
Below, each of the compounds is paired with its reported T/C value.

Query: Retrieve T/C measured for O=C1CCC2=C3C4CCCCC4C(=O)C4CCCC(OC2C1)C34 (configuration not stated) and print it.
Reply: 105 % of control

Query: Please give the documented T/C of "C=CCONC(=O)Oc1ccccc1"
Reply: 106 % of control

Query: Read the entry "O=C1OCCOC1=O" and write its reported T/C.
Reply: 90 % of control

Query: Identify measured T/C associated with "CS(=O)(=O)OCCCCCCCCCOS(C)(=O)=O"
Reply: 95 % of control

The reported numbers originate from PubChem BioAssay AID248.
